tested on: S. aureas; assay: Durable antibacterial activity of glass surfaces modified by antibacterial agents (plate/colony counting method); format: cell-based; conditions: wash number 100
Below, each entry is listed with its recorded Antibacterial activity of modified glass surface (plate counting method).
Expressed in %, but write only the number.

*Q* Fill in: Antibacterial activity of modified glass surface (plate counting method) on S. aureas, entry CC1(C)CC(NC(=O)OCC[N+](C)(C)CCS(=O)(=O)[O-])CC(C)(CN=C=O)C1 (stereo not drawn)
*A* 95.3

*Q* Fill in: Antibacterial activity of modified glass surface (plate counting method) on S. aureas, entry C[N+](C)(CCCS(=O)(=O)[O-])CCNC(=O)NC1CCC(CC2CCC(N=C=O)CC2)CC1 (stereo not drawn)
*A* 98.5

*Q* Fill in: Antibacterial activity of modified glass surface (plate counting method) on S. aureas, entry CC[N+](CC)(CCCS(=O)(=O)[O-])CCOC(=O)Nc1ccc(Cc2ccc(N=C=O)cc2)cc1
*A* 96.6

New cases:
*Q* Fill in: Antibacterial activity of modified glass surface (plate counting method) on S. aureas, entry CC1(C)CC(NC(=O)OCC[N+](C)(C)CCCC(=O)[O-])CC(C)(CN=C=O)C1 (stereo not drawn)
*A* 95.8

*Q* Fill in: Antibacterial activity of modified glass surface (plate counting method) on S. aureas, entry Cc1cc(NC(=O)NC2CC(C)(C)CC(C)(CN=C=O)C2)cc(C)[n+]1CCCS(=O)(=O)[O-] (stereo not drawn)
*A* 95.2

*Q* Fill in: Antibacterial activity of modified glass surface (plate counting method) on S. aureas, entry C[N+](C)(CCOC(=O)NCCCCCCN=C=O)CC(=O)[O-]
*A* 97.2

---

Below, each entry is listed with its recorded Antibacterial activity of modified glass surface (plate counting method).
test system: E. coli; experiment: Durable antibacterial activity of glass surfaces modified by antibacterial agents (plate/colony counting method); assay type: cell-based; conditions: wash number 100
Expressed in %, but write only the number.

*Q* Specify Antibacterial activity of modified glass surface (plate counting method) for C[N+](C)(CCOC(=O)NCCCCCCN=C=O)CC(=O)[O-] and stop.
*A* 96.5

*Q* Specify Antibacterial activity of modified glass surface (plate counting method) for CC1(C)CC(NC(=O)OCC[N+](C)(C)CCCC(=O)[O-])CC(C)(CN=C=O)C1 (stereo not drawn) and stop.
*A* 94.5

---

Below, each entry is listed with its recorded Antibacterial activity of modified glass surface (plate counting method).
test system: E. coli; assay: Durable antibacterial activity of glass surfaces modified by antibacterial agents (plate/colony counting method); format: cell-based; settings: wash number 100
Kindly format the answer as number then unit.

*Q* Specify Antibacterial activity of modified glass surface (plate counting method) for Cc1cc(NC(=O)NC2CC(C)(C)CC(C)(CN=C=O)C2)cc(C)[n+]1CCCS(=O)(=O)[O-] (stereo not shown) and stop.
*A* 94.3%

New cases:
*Q* Specify Antibacterial activity of modified glass surface (plate counting method) for C[N+](C)(CCCS(=O)(=O)[O-])CCNC(=O)NC1CCC(CC2CCC(N=C=O)CC2)CC1 (stereo not shown) and stop.
*A* 96.5%

*Q* Specify Antibacterial activity of modified glass surface (plate counting method) for CC[N+](CC)(CCCS(=O)(=O)[O-])CCOC(=O)Nc1ccc(Cc2ccc(N=C=O)cc2)cc1 and stop.
*A* 95.9%

*Q* Specify Antibacterial activity of modified glass surface (plate counting method) for CC1(C)CC(NC(=O)OCC[N+](C)(C)CCS(=O)(=O)[O-])CC(C)(CN=C=O)C1 (stereo not shown) and stop.
*A* 94.1%
